# protocol text: self-splicing fitness, log relative to wild type (ln ratio); higher = more splicing; Tetrahymena group I intron in knt gene, E. coli kanamycin selection, DiMSum; sequences stand for … in CUCUCU…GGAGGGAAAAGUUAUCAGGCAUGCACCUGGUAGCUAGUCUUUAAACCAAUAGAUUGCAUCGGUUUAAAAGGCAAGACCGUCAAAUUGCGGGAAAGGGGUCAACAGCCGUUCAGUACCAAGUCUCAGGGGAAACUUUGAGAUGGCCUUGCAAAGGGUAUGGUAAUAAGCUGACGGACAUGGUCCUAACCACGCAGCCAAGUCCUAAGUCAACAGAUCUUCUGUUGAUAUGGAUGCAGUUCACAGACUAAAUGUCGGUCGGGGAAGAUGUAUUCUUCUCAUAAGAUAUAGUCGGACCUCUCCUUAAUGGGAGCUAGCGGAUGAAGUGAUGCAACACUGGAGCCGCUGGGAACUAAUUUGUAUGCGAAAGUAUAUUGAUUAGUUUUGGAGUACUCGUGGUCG;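 also: selection with 25 µg/mL kanamycin versus none on LB agar overnight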
# conditions used: 30 °C
observation type: self-splicing fitness (ln)
When you answer, write just the number.

Return reported self-splicing fitness (ln); argument: `AACCAGCAAUAUUACGCAGA`
-1.76

Now the sequence `GGCAAGCAAUAUUACGCUCG`
-1.66

And then `GGGAAGCAAUAUUACGUGGA` , what is it?
-2

Entry to check: `UAAAAGCAAUAUUACGGCAU`
-0.376

Entry to check: `UCGGAGCAAUAUUACGAGGC`
-2.74

Also need `CGUUAGCAAUAUUACGAGGG` , thanks.
-3.63

Queued: `GAGAAGCAAUAUUACGACCU`
0.392

Record: `GCCAAGCAAUAUUACGUGUC`
-1.62

====

# protocol text: self-splicing fitness, log relative to wild type (ln ratio); higher = more splicing; Tetrahymena group I intron in knt gene, E. coli kanamycin selection, DiMSum; sequences stand for … in CUCUCU…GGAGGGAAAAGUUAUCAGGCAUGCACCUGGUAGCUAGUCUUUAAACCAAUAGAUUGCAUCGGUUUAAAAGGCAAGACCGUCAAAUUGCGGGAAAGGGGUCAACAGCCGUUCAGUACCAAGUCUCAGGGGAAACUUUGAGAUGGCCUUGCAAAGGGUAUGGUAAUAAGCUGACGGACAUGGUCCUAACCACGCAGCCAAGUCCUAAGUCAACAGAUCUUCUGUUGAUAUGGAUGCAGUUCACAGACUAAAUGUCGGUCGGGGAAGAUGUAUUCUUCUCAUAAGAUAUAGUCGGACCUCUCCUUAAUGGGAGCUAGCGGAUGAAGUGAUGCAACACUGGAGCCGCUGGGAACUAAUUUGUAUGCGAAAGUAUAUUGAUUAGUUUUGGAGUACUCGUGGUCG
# conditions used: 37 °C
Response key: rule met means self-splicing fitness (ln) >= -2; rule not met means self-splicing fitness (ln) < -2.

Is self-splicing fitness (ln) at least -2? Consider `CGAAAGCAAUAUUACGGUCG`
rule not met

Then this sequence: `AAUUAGCAAUAUUACGAGCA`
rule met

Same question for `GCUCAGCAAUAUUACGCUAA` please.
rule met

Also `GAUGAGCAAUAUUACGUUUC` ?
rule not met

Repeat with `CAUAAGCAAUAUUACGCAUG`
rule not met

Would you kindly repeat that for `UACAAGCAAUAUUACGGGAA` ?
rule met

Moving on to the next sequence: `UCCCAGCAAUAUUACGAGUG`
rule met

Entry to check: `AACAAGCAAUAUUACGCAAG`
rule met

Next sequence: `CCAUAGCAAUAUUACGCCCA`
rule met

How about `CUAGAGCAAUAUUACGGUGG` ?
rule met

Please answer likewise for `UCCAAGCAAUAUUACGGCCG`
rule met

Try this sequence too: `CAACAGCAAUAUUACGCCAA`
rule met

Further, for `GGCAAGCAAUAUUACGUACG` ?
rule met

Here is the next sequence: `CUAAAGCAAUAUUACGGCGU`
rule not met

# iterate: `CUUUAGCAAUAUUACGGUUU`
rule not met

Would you kindly repeat that for `GUCUAGCAAUAUUACGCGGA` ?
rule not met

Same for `CGUAAGCAAUAUUACGUUAU`
rule met

Can you handle `UCCGAGCAAUAUUACGAAUG` next?
rule not met

Could you do the same for `GUGCAGCAAUAUUACGGUCA` , please?
rule met

Record: `UAAGAGCAAUAUUACGAAUG`
rule met

Request: `AUAUAGCAAUAUUACGGGGU`
rule not met

Subsequent entry: `UAGAAGCAAUAUUACGUAAA`
rule met

Again, but for `AUCUAGCAAUAUUACGUUUU`
rule met

Repeat for the following sequence: `UCUUAGCAAUAUUACGGACU`
rule met

Then `AGGUAGCAAUAUUACGAAGG` ?
rule not met

Would you kindly repeat that for `GAUGAGCAAUAUUACGGCGU` ?
rule met

// repeat for `CAUUAGCAAUAUUACGAUCG` and report
rule met

Try this sequence next: `AGAUAGCAAUAUUACGCUAU`
rule not met

Same question, `ACCCAGCAAUAUUACGUAUU` this time
rule met

What would you report for `AUGGAGCAAUAUUACGGAUC` ?
rule not met

Ok, now `CCCGAGCAAUAUUACGUAAA`
rule not met

Also check `AGCUAGCAAUAUUACGGCCC`
rule met

And what about the sequence `GAUAAGCAAUAUUACGAGAG` ?
rule not met

What about `CCUAAGCAAUAUUACGUAAA` ?
rule not met

Again, but for `UGGCAGCAAUAUUACGGCAA`
rule met

Next up: `GCAGAGCAAUAUUACGAUAU`
rule met

Again, but for `AAUGAGCAAUAUUACGAACU`
rule met

Then what about the sequence `GUGAAGCAAUAUUACGGGGU` ?
rule met

Now the same for `UUUGAGCAAUAUUACGAGUA`
rule met

Now the sequence `CGUUAGCAAUAUUACGAAUA`
rule met

Next record, please: `AUGUAGCAAUAUUACGUGUC`
rule not met

Field entry: `CAUCAGCAAUAUUACGCUAA`
rule met

Now this one: `GGUAAGCAAUAUUACGAGAU`
rule met

Also, `CCCAAGCAAUAUUACGUCGU` please.
rule not met

Also `GCUCAGCAAUAUUACGUUAC` ?
rule met

Try this sequence next: `AUACAGCAAUAUUACGGAGA`
rule met

Also need `ACAUAGCAAUAUUACGCUUU` , thanks.
rule not met

// repeat for `ACAAAGCAAUAUUACGAAUG` and report
rule met

How about this sequence: `GUCUAGCAAUAUUACGUUAG`
rule not met

// repeat for `CCAAAGCAAUAUUACGGACU` and report
rule not met

Consider next the sequence `GAGAAGCAAUAUUACGUAAA` in the same way.
rule met

What do you get for `AAACAGCAAUAUUACGUGAC` ?
rule not met

Quick one: `UUAGAGCAAUAUUACGCGGG`
rule met

Same lookup for `UAUAAGCAAUAUUACGCGGA` , please.
rule met

And the next one, `ACUGAGCAAUAUUACGAACA` ?
rule not met

Let us now turn to `GAAUAGCAAUAUUACGUUUU`
rule met

How about this sequence: `GUGCAGCAAUAUUACGAUAG`
rule not met

Now consider `CGCCAGCAAUAUUACGAUCA` .
rule met

Same lookup for `UAUGAGCAAUAUUACGGUAU` , please.
rule met

Then what about the sequence `UCUCAGCAAUAUUACGCCUA` ?
rule met

For `CCGUAGCAAUAUUACGGCUG` then?
rule met

Same question for `ACUAAGCAAUAUUACGCUAC` please.
rule met

Another sequence: `AUAGAGCAAUAUUACGGAUU`
rule met

Input `CAUCAGCAAUAUUACGAUGG`
rule met

====

# protocol text: self-splicing fitness, log relative to wild type (ln ratio); higher = more splicing; Tetrahymena group I intron in knt gene, E. coli kanamycin selection, DiMSum; sequences stand for … in CUCUCU…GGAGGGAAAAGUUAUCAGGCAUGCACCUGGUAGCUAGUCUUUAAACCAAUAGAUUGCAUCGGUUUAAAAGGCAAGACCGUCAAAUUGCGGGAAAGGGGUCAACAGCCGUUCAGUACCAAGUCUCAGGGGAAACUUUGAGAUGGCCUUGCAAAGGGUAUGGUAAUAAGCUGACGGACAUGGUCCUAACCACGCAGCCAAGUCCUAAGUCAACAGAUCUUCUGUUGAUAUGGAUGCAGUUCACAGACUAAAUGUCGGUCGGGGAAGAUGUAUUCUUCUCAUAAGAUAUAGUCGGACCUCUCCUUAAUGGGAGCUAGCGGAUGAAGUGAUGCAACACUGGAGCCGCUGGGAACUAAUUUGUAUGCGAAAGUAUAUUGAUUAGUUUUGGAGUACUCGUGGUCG
# conditions used: 30 °C
Exercise: for every item that follows, state its recorded self-splicing fitness (ln).
Note: the reply should be a number with no unit written.

So what's the measured self-splicing fitness (ln) for this one? `UGCCAGCAAUAUUACGACGU`
-1.75

And the next one, `GUAGAGCAAUAUUACGAGUU` ?
-2.39

Now the same for `AGGAAGCAAUAUUACGCGUG`
-1.49

Repeat with `AGGUAGCAAUAUUACGAAGG`
-3.91

Ok, now `GGGAAGCAAUAUUACGGUGA`
-1.76

Would you kindly repeat that for `CAAAAGCAAUAUUACGAGCA` ?
-2.5

Please answer likewise for `UAUGAGCAAUAUUACGGGUC`
-3.72

// same read-out, input: `AAGGAGCAAUAUUACGGAUG`
-3.8

Then this sequence: `AUAUAGCAAUAUUACGUACC`
-1.41

Proceed to `GGAUAGCAAUAUUACGGUAC`
-1.59

Follow-up entry: `UAGCAGCAAUAUUACGUACA`
-1.16

Next record, please: `CUUAAGCAAUAUUACGGCAA`
-2.7

Repeat with `CACCAGCAAUAUUACGACUA`
-0.763

Next record, please: `ACAAAGCAAUAUUACGUGAG`
-0.439

Next: `CCUUAGCAAUAUUACGCGUG`
-2.33

Follow-up entry: `UCUGAGCAAUAUUACGCGAU`
-3.14
